The reported numbers originate from PubChem BioAssay (NCI).

# Test system: HT29 colon
# assay-name: NCI-60 one-dose screen, 48 h
# condition-context: 10 µM unless noted
The panel holds about 83,000 compounds, 20% with a hit somewhere; the sample as a whole holds those more often. Active and inactive are the calls of the source. How the source made its calls: active means growth percent below 10; inactive means the rest.
Select the correct class. Options are active, inactive and nothing else.

Record lookup: outcome of this test for CCCCCCCCc1ccc(C(=O)Nc2ccc(C)cc2C(=O)O)cc1C ?
inactive

Record lookup: outcome of this test for Cc1ccc(C(=O)CSc2nc3ccc(F)cc3c(=O)n2-c2ccc(Cl)cc2)cc1 ?
inactive

Record lookup: outcome of this test for Cn1cc(-c2cc3nc(-c4cn(C)c5ncc(Br)cc45)cc(N)n3n2)c2ccccc21 ?
active

Record lookup: outcome of this test for COc1cc(CNC(=O)/C=C/c2ccc3c(c2)OCO3)ccc1OCc1cn(-c2ccc([N+](=O)[O-])cc2)nn1 ?
inactive

Record lookup: outcome of this test for NS(=O)(=O)c1ccc(NNC(=O)CCC(=O)c2ccccc2)cc1 ?
inactive

Record lookup: outcome of this test for Cn1cc(-c2cc(N)n3nc(-c4cn(C)c5ccccc45)cc3n2)c2cc(Cl)ccc21 ?
active

Record lookup: outcome of this test for CN(C)CCOc1ccc(C(=O)C2[C@H](c3ccc(Cl)cc3)[C@@H](c3ccccc3)NC23C(=O)Nc2ccc(Br)cc23)cc1 (stereo partly drawn) ?
active

Record lookup: outcome of this test for O=C(/C=C/Nc1ccc2oc(=O)ccc2c1)c1cc2cc(Br)ccc2oc1=O ?
inactive

Record lookup: outcome of this test for CC12CC[C@@H]3[C@]4(C)COC(c5cn[nH]c5-c5ccc(Br)cc5)O[C@@H]4CC[C@@]3(C)[C@@H]1CC(C1=CCOC1=O)O2 (stereo partly drawn) ?
inactive

Record lookup: outcome of this test for CNC(=O)c1cc(Oc2ccc3nc(NC(=O)Nc4cccc(OC(F)(F)F)c4)sc3c2)ccn1 ?
inactive

Record lookup: outcome of this test for Cc1cc(=O)oc2cc(OCCCCOc3ccc(/C=C/C(=O)Nc4ccccc4N)cc3)ccc12 ?
inactive

Record lookup: outcome of this test for COc1cc2nc(SCc3ccccc3)n(-c3ccc(Cl)cc3)c(=O)c2cc1OC ?
inactive

Record lookup: outcome of this test for CCOC(=O)C1=C(N)N(c2ccccc2)C2=C(C(=O)CC(C)(C)C2)C1c1cccc(Cl)c1Cl (stereo not drawn) ?
inactive

Record lookup: outcome of this test for CC(C)(C)OC(=O)/C=C/c1cccc2c1C(=O)NC(C)(c1cc3cc(Cl)ccc3oc1=O)N2 (stereo not drawn) ?
inactive

Record lookup: outcome of this test for COc1cc(/C=C/C(=O)c2ccccc2)ccc1Oc1nc(Nc2ccc(F)cc2)nc(N(C)C)n1 ?
inactive

Record lookup: outcome of this test for CC(C)c1sc(NC(=O)c2cc(NC(=O)c3cc(NC(=O)c4cscn4)cn3C)cn2C)nc1C(=O)NCCCN(C)C ?
active

Record lookup: outcome of this test for C#CCOc1ccc(/C=N/Nc2nc(-c3ccc(Cl)cc3)cs2)cc1OC ?
inactive

Record lookup: outcome of this test for S=C(Nc1ccc(OCc2nc3ccccc3[nH]2)cc1)NC1CCCCC1 ?
inactive

====

So I've got a bunch of molecules here, and I need their growth values.
# Test system: CCRF-CEM leukemia
# assay-name: NCI-60 one-dose screen, 48 h (100 = growth as untreated, 0 = no growth, -100 = all killed)
# condition-context: 10 µM unless noted
About 83,000 compounds went through this panel and 20% of them were active in at least one assay; those are over-represented in the sample as a whole.
// units = %; emit number, no label

Bench note, CCRF-CEM leukemia: entry C=C1CC[C@@H]2[C@]3(C)COC(c4ccco4)O[C@@H]3CC[C@@]2(C)[C@@H]1C/C=C1/C(=O)OCC1OC(C)=O (stereo partly drawn) , its growth = -19.8

Bench note, CCRF-CEM leukemia: entry COc1cccc(-c2nc(Nc3ccc(S(N)(=O)=O)cc3)c3ccccc3n2)c1 , its growth = 18.7

Bench note, CCRF-CEM leukemia: entry Cc1cc(C)cc(C(=O)Nc2cccc(-c3cn(-c4ccc(S(N)(=O)=O)cc4)nn3)c2)c1 , its growth = 30.4

Bench note, CCRF-CEM leukemia: entry Cc1nc(Nc2ccccn2)sc1C(=O)CC(SCC(=O)Nc1ccc(Cl)cc1)c1ccccc1F (stereo not drawn) , its growth = 12.4

Bench note, CCRF-CEM leukemia: entry NS(=O)(=O)c1ccc(CCNC(=O)CSc2ccc(-c3ccc(Br)cc3)nn2)cc1 , its growth = 54.3

Bench note, CCRF-CEM leukemia: entry CCCCSc1nc(Nc2ccc(S(N)(=O)=O)cc2)c(C#N)c(-c2cc(OC)c(OC)c(OC)c2)n1 , its growth = 22.1

Bench note, CCRF-CEM leukemia: entry CCN(CC)CCOc1ccc(Nc2ncc3cc(-c4ccc(O)c(C#N)c4)c(=O)n(C)c3n2)cc1 , its growth = -25.5

Bench note, CCRF-CEM leukemia: entry COC(=O)C[C@](O)(CCCC(C)(C)O)C(=O)O[C@H]1C(OC)=C[C@@]23CCCN2CCc2cc4c(cc2[C@@H]13)OCO4 , its growth = -5.84

====

So I've got a bunch of compounds here, and I need their growth values.
# Tested on: SNB-19 CNS
# assay-name: NCI-60 one-dose screen, 48 h (100 = growth as untreated, 0 = no growth, -100 = all killed)
# condition-context: 10 µM unless noted
This is part of a sample that, as a whole, favours compounds with a hit. Of some 83,000 tested, about 20% had one in any assay.
// units = %; emit number, no label

Bench note, SNB-19 CNS: entry CN(C)c1nc(NCCNS(=O)(=O)c2ccc(C(=O)/C=C/c3ccc(F)cc3)cc2)nc(Nc2ccc(F)cc2)n1 , its growth = -74.8

Bench note, SNB-19 CNS: entry CC(=O)NNc1ccc2nnc(-c3ccccc3)n2n1 , its growth = 97.3

Bench note, SNB-19 CNS: entry CCCCSc1nc(Nc2ccc(S(N)(=O)=O)cc2)c(C#N)c(-c2ccc(Cl)cc2)n1 , its growth = 45.5

Bench note, SNB-19 CNS: entry COc1cc2oc(-c3cccc(NC(=O)[C@H](CC(N)=O)NC(=O)OC(C)(C)C)c3)cc(=O)c2c(OC)c1OC , its growth = 96

Bench note, SNB-19 CNS: entry COc1ccc(C(=O)Nc2n[nH]c(Nc3ccccc3)c2C#N)cc1 , its growth = 99.5

Bench note, SNB-19 CNS: entry COc1ccc(-c2cc(C(=O)NCc3ccccc3)nn2-c2ccc(S(C)(=O)=O)cc2)cc1OC , its growth = 95.2

Bench note, SNB-19 CNS: entry CC1=C(C(=O)OCc2ccccc2)C(c2ccc(-n3cncn3)cc2)n2c(nc3ccccc32)N1 (centres undefined) , its growth = 66.9

Bench note, SNB-19 CNS: entry Nc1nc(C(F)(F)F)cs1 , its growth = 105

Bench note, SNB-19 CNS: entry Cc1ccc(C(=O)NN2C(=O)/C(=C/C=C/c3ccc([N+](=O)[O-])o3)SC2=S)cc1 , its growth = -100

====

# System: SNB-75 CNS
# assay-name: NCI-60 one-dose screen, 48 h
# condition-context: 10 µM unless noted
Compounds without any hit were thinned out: in the full panel of roughly 83,000, 20% have a hit. The source made the active and inactive calls. Rule for the calls: active = growth percent below 10; inactive = the rest.
Select the correct class. Options are t (active), f (inactive) and nothing else.

Record lookup: outcome of this test for CN(C)c1nc(NCCNS(=O)(=O)c2ccc(C(=O)/C=C/c3ccc(F)cc3)cc2)nc(Nc2ccc(F)cc2)n1 ?
t

Record lookup: outcome of this test for CSc1ccc(NC(=O)c2ccc3nnn(/C(C#N)=C/c4ccccn4)c3c2)cc1 ?
f

Record lookup: outcome of this test for O=c1cc(-c2ccccc2)oc2cc(OCCCC[P+](c3ccccc3)(c3ccccc3)c3ccccc3)cc(O)c12 ?
t

Record lookup: outcome of this test for CCOC(=O)COc1c(OC)c(OC)cc2oc(-c3cccc(C(=O)Nc4ccc(Cl)cc4)c3)cc(=O)c12 ?
f

====

# Tested on: SF-539 CNS
# assay-name: NCI-60 one-dose screen, 48 h
# condition-context: 10 µM unless noted
Compounds without any hit were thinned out: in the full panel of roughly 83,000, 20% have a hit. Activity calls are given as the source filed them. How the source made its calls: active means growth percent below 10; inactive means the rest.
Select the correct class. Options are active, inactive and nothing else.

Record lookup: outcome of this test for C#C[C@]1(O)CC[C@H]2[C@@H]3CC=C4c5sc(-c6ccc([N+](=O)[O-])cc6)nc5CC[C@]4(C)[C@H]3CC[C@@]21C ?
active

Record lookup: outcome of this test for Cn1cc(-c2cc(N)n3nc(-c4cn(C)c5ncccc45)cc3n2)c2cccnc21 ?
inactive

Record lookup: outcome of this test for Cc1c(C(=O)NNC(=O)Nc2ccc(Cl)cc2)nnn1-c1ccc(Br)cc1 ?
inactive

Record lookup: outcome of this test for COc1cc(-c2nc3cc(Cl)c(Cl)cc3[nH]2)ccc1OCc1nnc(-c2cccs2)o1 ?
inactive

Record lookup: outcome of this test for CC(=O)Nc1cccc(Nc2nccc(N[C@@H](C)c3ccccc3)n2)c1 ?
active

Record lookup: outcome of this test for O=C(COc1ccc(NC(=O)Nc2ccc(Cl)c(Cl)c2)cc1)N=Nc1c(O)[nH]c2ccc(Br)cc12 ?
active

Record lookup: outcome of this test for C#CCOc1ccc(/C=N/Nc2nc(-c3cc4cc(Br)ccc4oc3=O)cs2)cc1OC ?
inactive

Record lookup: outcome of this test for C=C1CC[C@@H]2[C@]3(C)COC(c4cn[nH]c4-c4ccc(C)cc4)O[C@@H]3CC[C@@]2(C)[C@@H]1C/C=C1/C(=O)OCC1O (stereo partly drawn) ?
active

Record lookup: outcome of this test for CN(C)c1ccnc(CNCCSC2(c3ccc(C(F)(F)F)cc3)c3ccccc3CCc3ccccc32)c1 ?
active

Record lookup: outcome of this test for N#Cc1c(-c2ccc(Cl)cc2)nc2n[nH]c(-c3ccc(Cl)cc3)c2c1-c1cccs1 ?
inactive

Record lookup: outcome of this test for CN(C)c1nc(NCCNS(=O)(=O)c2ccc(C(=O)/C=C/c3ccc(F)cc3)cc2)nc(Nc2ccc(F)cc2)n1 ?
active

Record lookup: outcome of this test for O=C(NN1C(=O)/C(=C/C=C/c2ccc([N+](=O)[O-])o2)SC1=S)c1ccc(Cl)cc1 ?
active

Record lookup: outcome of this test for C#CCOc1cc(N(CC)CC)ccc1C(C(=O)NC(C)(C)C)N(C(=O)C1CCc2cc(F)ccc2O1)c1ccc(Br)cc1 (stereo not drawn) ?
inactive

Record lookup: outcome of this test for CN(C)c1ccnc(NCCCSC(c2ccccc2)(c2ccccc2)c2ccccc2)c1 ?
inactive

Record lookup: outcome of this test for COC(OC)C1=C(C)OC(N)=C(C#N)C12C(=O)Nc1ccccc12 (stereo not drawn) ?
inactive

Record lookup: outcome of this test for O=C(COc1ccc(NC(=O)Nc2ccc(Cl)c(Cl)c2)cc1)N=Nc1c(O)[nH]c2ccc([N+](=O)[O-])cc12 ?
active

Record lookup: outcome of this test for CCOC(=O)C(N=Nc1ccc(S(=O)(=O)N=C(N)N)cc1)C(C)=O (stereo not drawn) ?
inactive

Record lookup: outcome of this test for Cc1ccc(NC(=O)CN2CCN(c3ncnc4c3cnn4-c3ccccc3)CC2)cc1 ?
inactive
